Values compiled from patent US9849130B2.

- ASSAY OVERVIEW: CFM formulations suitable for in vivo dosing (Table 18)
- EXPERIMENTAL CONTEXT: Tween 80 (100%, liquid), organic solvent or mixture, Solubility, in Tween 80, liquid, 100%
VALUE KIND: solubility (mg/mL)
Give the number; mg/mL is assumed, so skip it.

Query CC(C)N=c1cc2n(-c3ccc(Cl)cc3)c3ccccc3nc-2cc1Nc1ccc(Cl)cc1 yields solubility of 12

====

- Test system: Escherichia coli strains
- ASSAY OVERVIEW: MIC by microdilution in Mueller-Hinton broth against Escherichia coli strains
- Assay type: cell-based
- EXPERIMENTAL CONTEXT: Escherichia coli, Escherichia coli strain NR 17647; Mueller-Hinton broth; read-out: MIC
Kindly state MIC for each of the entries shown.
Give the number; µg/mL is assumed, so skip it.

Query NCC[C@H](O)C(=O)N[C@@H]1C[C@H](N)[C@@H](O[C@H]2O[C@H](CN)[C@@H](O)[C@H](O)[C@H]2O)[C@H](O)[C@H]1O[C@H]1O[C@H](CO)[C@@H](O)[C@H](N)[C@H]1O [AMK, amikacin] yields MIC of 2

Query CC1(C)S[C@@H]2[C@H](NC(=O)[C@H](N)c3ccccc3)C(=O)N2[C@H]1C(=O)O [AMP, ampicillin] yields MIC of 4

====

- System: Staphylococcus aureus strains
- ASSAY OVERVIEW: MIC by microdilution in Mueller-Hinton broth against Staphylococcus aureus strains
- Format: cell-based
- EXPERIMENTAL CONTEXT: Staphylococcus aureus, Staphylococcus aureus strain NR 10187, read-out: MIC
Kindly state MIC for each of the entries shown.

Record NCC[C@H](O)C(=O)N[C@@H]1C[C@H](N)[C@@H](O[C@H]2O[C@H](CN)[C@@H](O)[C@H](O)[C@H]2O)[C@H](O)[C@H]1O[C@H]1O[C@H](CO)[C@@H](O)[C@H](N)[C@H]1O has Staphylococcus aureus strains MIC equal to > 32 µg/mL

Record CC1(C)S[C@@H]2[C@H](NC(=O)[C@H](N)c3ccccc3)C(=O)N2[C@H]1C(=O)O has Staphylococcus aureus strains MIC equal to 8 µg/mL

Record Cc1ncc([N+](=O)[O-])n1CCO has Staphylococcus aureus strains MIC equal to > 32 µg/mL

Record CC(C)N=c1cc2n(-c3ccc(Cl)cc3)c3ccccc3nc-2cc1Nc1ccc(Cl)cc1 has Staphylococcus aureus strains MIC equal to > 32 µg/mL

====

Kindly state MIC for each of the entries shown.
- System: Escherichia coli strains
- ASSAY OVERVIEW: MIC by microdilution in Mueller-Hinton broth against Escherichia coli strains
- Assay type: cell-based
- EXPERIMENTAL CONTEXT: Escherichia coli, Escherichia coli strain NR 6; Mueller-Hinton broth; read-out: MIC
Give the number; µg/mL is assumed, so skip it.

Query NCC[C@H](O)C(=O)N[C@@H]1C[C@H](N)[C@@H](O[C@H]2O[C@H](CN)[C@@H](O)[C@H](O)[C@H]2O)[C@H](O)[C@H]1O[C@H]1O[C@H](CO)[C@@H](O)[C@H](N)[C@H]1O yields MIC of 4

Query CC1(C)S[C@@H]2[C@H](NC(=O)[C@H](N)c3ccccc3)C(=O)N2[C@H]1C(=O)O yields MIC of 2

====

- System: Enterococci faecium
- ASSAY OVERVIEW: MIC by microdilution in Mueller-Hinton broth against Enterococci faecium strains
- Type: cell-based, Enterococcus faecium
- EXPERIMENTAL CONTEXT: Enterococcus faecium, E. faecium NR 31916; Mueller-Hinton broth; read-out: MIC
Kindly state MIC for each of the entries shown.
Give the number; µg/mL is assumed, so skip it.

Query O=C1C(NC2CCCCCCC2)=CC(=O)c2ncccc21 yields MIC of 16

Query CC(C)N=c1cc2n(-c3ccc(Cl)cc3)c3ccccc3nc-2cc1Nc1ccc(Cl)cc1 yields MIC of 8

====

- ASSAY OVERVIEW: CFM formulations suitable for in vivo dosing (Table 18)
- EXPERIMENTAL CONTEXT: Phosal 53 MCT (phospholipids), oil or lipid, Solubility, in Phosal 53 MCT (phospholipids), thick oily liquid
VALUE KIND: solubility (mg/mL)
Give the number; mg/mL is assumed, so skip it.

Query CC(C)N=c1cc2n(-c3ccc(Cl)cc3)c3ccccc3nc-2cc1Nc1ccc(Cl)cc1 yields solubility of 10

====

- ASSAY OVERVIEW: CFM formulations suitable for in vivo dosing (Table 18)
- EXPERIMENTAL CONTEXT: Cremophor-EL (100%, liquid), organic solvent or mixture, Solubility, in Cremophor-EL, liquid, 100%; if kept for long time (3-5 days)
VALUE KIND: solubility (mg/mL)
Give the number; mg/mL is assumed, so skip it.

Query CC(C)N=c1cc2n(-c3ccc(Cl)cc3)c3ccccc3nc-2cc1Nc1ccc(Cl)cc1 [CFM] yields solubility of 10

====

- Tested on: Enterococci faecium
- ASSAY OVERVIEW: MIC by microdilution in Mueller-Hinton broth against Enterococci faecium strains
- Format: cell-based, Enterococcus faecium
- EXPERIMENTAL CONTEXT: Enterococcus faecium, E. faecium NR 31912; Mueller-Hinton broth; read-out: MIC
Kindly state MIC for each of the entries shown.
Give the number; mg/L is assumed, so skip it.

Query CC(C)N=c1cc2n(-c3ccc(Cl)cc3)c3ccccc3nc-2cc1Nc1ccc(Cl)cc1 yields MIC of 2

Query O=C1C(NC2CCCCCCC2)=CC(=O)c2ncccc21 yields MIC of 32

====

- ASSAY OVERVIEW: CFM formulations suitable for in vivo dosing (Table 18)
- EXPERIMENTAL CONTEXT: olive oil, canola oil, and coconut oil (100%, liquid), oil or lipid, Solubility, in Olive oil, canola oil, and coconut oil, liquid, 100%
VALUE KIND: solubility (µg/mL)
Give the number; µg/mL is assumed, so skip it.

Query CC(C)N=c1cc2n(-c3ccc(Cl)cc3)c3ccccc3nc-2cc1Nc1ccc(Cl)cc1 yields solubility of 5000

====

Kindly state MIC for each of the entries shown.
- Tested on: Escherichia coli strains
- ASSAY OVERVIEW: MIC by microdilution in Mueller-Hinton broth against Escherichia coli strains
- Assay type: cell-based
- EXPERIMENTAL CONTEXT: Escherichia coli, Escherichia coli strain NR 104; Mueller-Hinton broth; read-out: MIC
Give the number; µg/mL is assumed, so skip it.

Query CC1(C)S[C@@H]2[C@H](NC(=O)[C@H](N)c3ccccc3)C(=O)N2[C@H]1C(=O)O yields MIC of 4

Query NCC[C@H](O)C(=O)N[C@@H]1C[C@H](N)[C@@H](O[C@H]2O[C@H](CN)[C@@H](O)[C@H](O)[C@H]2O)[C@H](O)[C@H]1O[C@H]1O[C@H](CO)[C@@H](O)[C@H](N)[C@H]1O yields MIC of 2

====

- System: Enterococci faecium
- ASSAY OVERVIEW: MIC by microdilution in Mueller-Hinton broth against Enterococci faecium strains
- Assay type: cell-based, Enterococcus faecium
- EXPERIMENTAL CONTEXT: Enterococcus faecium, E. faecium NR 31909; Mueller-Hinton broth; read-out: MIC
VALUE KIND: MIC (µg/mL)
Give the number; µg/mL is assumed, so skip it.

Record CC(C)N=c1cc2n(-c3ccc(Cl)cc3)c3ccccc3nc-2cc1Nc1ccc(Cl)cc1 [CFM] has Enterococci faecium MIC equal to 2

Record O=C1C(NC2CCCCCCC2)=CC(=O)c2ncccc21 [AZQ, 6-(cyclooctylamino)-5,8-quinolinequinone] has Enterococci faecium MIC equal to 32

====

- ASSAY OVERVIEW: CFM formulations suitable for in vivo dosing (Table 18)
- EXPERIMENTAL CONTEXT: polyethylene glycol (PEG-300, PEG-400), 100%, liquid, organic solvent or mixture, Solubility, in Polyethylene glycol (PEG-300, PEG-400)
VALUE KIND: solubility (mg/mL)
Give the number; mg/mL is assumed, so skip it.

Query CC(C)N=c1cc2n(-c3ccc(Cl)cc3)c3ccccc3nc-2cc1Nc1ccc(Cl)cc1 [CFM] yields solubility of 5

====

- System: Enterococci faecium
- ASSAY OVERVIEW: MIC by microdilution in Mueller-Hinton broth against Enterococci faecium strains
- Format: cell-based, Enterococcus faecium
- EXPERIMENTAL CONTEXT: Enterococcus faecium, E. faecium NR 31916; Mueller-Hinton broth; read-out: MIC
Kindly state MIC for each of the entries shown.

Record NCC[C@H](O)C(=O)N[C@@H]1C[C@H](N)[C@@H](O[C@H]2O[C@H](CN)[C@@H](O)[C@H](O)[C@H]2O)[C@H](O)[C@H]1O[C@H]1O[C@H](CO)[C@@H](O)[C@H](N)[C@H]1O has Enterococci faecium MIC equal to > 32 µg/mL

Record Cc1ncc([N+](=O)[O-])n1CCO has Enterococci faecium MIC equal to > 32 µg/mL

Record CC1(C)S[C@@H]2[C@H](NC(=O)[C@H](N)c3ccccc3)C(=O)N2[C@H]1C(=O)O has Enterococci faecium MIC equal to > 32 µg/mL
